- System: UACC-257 melanoma
- MEASUREMENT PROTOCOL: NCI-60 one-dose screen, 48 h (100 = growth as untreated, 0 = no growth, -100 = all killed)
- CONDITION DETAILS: 10 µM unless noted
The panel holds about 83,000 compounds, 20% with a hit somewhere; the sample as a whole holds those more often. Active and inactive are the calls of the source. Rule for the calls: active = growth percent below 10; inactive = the rest.
PARAMETER: growth

The examples below pair each entry with its known result.
>>> df
                                   compound  parameter            result
0  COc1cc(-c2nc3sccn3c2-c2ccnc(S(C)(=O)=O)n2)ccc1F     growth  96.1% (inactive)
1  COC(=O)c1[nH]nc2c1C1(C(=O)N(C)c3ccccc31)C(C#N)=C(N)O2 (configuration not stated)     growth   103% (inactive)
2  Nc1ccccc1NC(=O)c1ccc(NC(=O)C/C=C/c2cccnc2)cn1     growth  14.5% (inactive)
3         Cc1cc2nc(C(Cl)Cl)nc(-c3cccs3)n2n1     growth  33.1% (inactive)
4  CCn1c2ccccc2c2cc(-n3nncc3-c3ccccc3)ccc21     growth  85.4% (inactive)

For each of the compounds below, state growth.
1. CS(=O)(=O)c1ncc(-c2ccccc2)cn1
2. Cc1occc1-c1nc2s/c(=C/c3ccc(-c4cc(C(F)(F)F)ccc4Cl)o3)c(=O)n2n1
3. NC(=O)c1cccc(C#CCNC[C@H]2C[C@@H](n3ccc4c(Cl)ncnc43)[C@H](O)[C@@H]2O)c1

Return:
89.7% (inactive)
105% (inactive)
98.2% (inactive)

Please supply growth for each of the following items, keeping them in order.
1. COc1ccc2[nH]cc(/C=N/Nc3nc4ccccc4s3)c2c1
2. COc1cc2oc(-c3cccc(NC(=O)c4cc(N)ccc4Cl)c3)cc(=O)c2c(OC)c1OC
3. CC1(C)NCCC[C@]2(C)[C@H]3C/C(=N\O)C4[C@@H]5C[C@@](C)(CO)CC[C@]5(C)CC[C@@]4(C)[C@]3(C)CC[C@@H]12 (some centres not stated)
4. CCO/C=N/C1=C(C#N)C(c2ccc(OC)cc2)c2sc3c(CC)cccc3c2O1 (configuration not stated)
5. N#Cc1c(Nc2ccccc2)nn2c(-c3ccc([N+](=O)[O-])cc3)ccnc12

Return:
1: 81.9% (inactive); 2: 127% (inactive); 3: 102% (inactive); 4: 73.8% (inactive); 5: 95.3% (inactive)
